Ref: ChEMBL document CHEMBL1961873

tested on: Platelet-derived growth factor receptor alpha (Homo sapiens), P16234 [D842V]; conditions: at 0.1 µM
Sequence (P16234 whole entry D842V): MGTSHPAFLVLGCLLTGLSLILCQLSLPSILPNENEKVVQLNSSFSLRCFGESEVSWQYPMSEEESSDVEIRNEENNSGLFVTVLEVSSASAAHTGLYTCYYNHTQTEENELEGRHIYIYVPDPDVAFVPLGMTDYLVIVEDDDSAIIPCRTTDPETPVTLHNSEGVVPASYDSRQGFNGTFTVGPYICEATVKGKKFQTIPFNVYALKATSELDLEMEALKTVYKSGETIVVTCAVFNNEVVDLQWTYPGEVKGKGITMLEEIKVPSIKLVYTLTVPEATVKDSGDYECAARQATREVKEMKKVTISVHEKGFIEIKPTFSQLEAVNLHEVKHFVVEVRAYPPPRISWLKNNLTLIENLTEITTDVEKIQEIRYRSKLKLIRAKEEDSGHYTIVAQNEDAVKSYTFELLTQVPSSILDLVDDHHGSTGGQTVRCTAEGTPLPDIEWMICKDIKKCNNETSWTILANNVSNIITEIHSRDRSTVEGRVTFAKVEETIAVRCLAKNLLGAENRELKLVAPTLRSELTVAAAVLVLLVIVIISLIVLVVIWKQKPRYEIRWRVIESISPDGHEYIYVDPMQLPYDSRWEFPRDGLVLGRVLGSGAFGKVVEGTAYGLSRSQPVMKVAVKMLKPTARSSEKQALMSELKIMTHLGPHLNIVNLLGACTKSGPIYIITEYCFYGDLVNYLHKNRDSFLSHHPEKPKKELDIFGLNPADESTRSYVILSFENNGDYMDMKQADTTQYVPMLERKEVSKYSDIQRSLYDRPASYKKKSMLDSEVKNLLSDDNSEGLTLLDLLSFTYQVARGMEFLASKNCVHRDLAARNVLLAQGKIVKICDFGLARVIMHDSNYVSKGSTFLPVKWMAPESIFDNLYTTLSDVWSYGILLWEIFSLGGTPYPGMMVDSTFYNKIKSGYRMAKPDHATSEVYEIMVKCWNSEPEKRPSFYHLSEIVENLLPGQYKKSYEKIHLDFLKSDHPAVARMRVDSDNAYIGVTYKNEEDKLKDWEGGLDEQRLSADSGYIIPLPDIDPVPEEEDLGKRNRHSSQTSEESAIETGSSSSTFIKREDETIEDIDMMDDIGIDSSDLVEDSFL
Binary classification by inhibition, with 3% as an inclusive lower bound for y; all other cases are n.

- smiles entry: "CN(c1ccc(NC(=O)Nc2c(Cl)cccc2Cl)cc1)c1ccnc(Nc2cccc(CS(C)(=O)=O)c2)n1"
  cat: "y"
- smiles entry: "CCS(=O)(=O)c1ccc(OC)c(Nc2ncc(-c3cccc(-c4ccccc4F)c3)o2)c1"
  cat: "y"
- smiles entry: "CN(C)CCCNc1nccc(-c2c(-c3ccc(F)cc3)nn3cc(C(F)(F)F)ccc23)n1"
  cat: "y"
- smiles entry: "COc1ccc(-c2ccc3c(NC(=O)C4CC4)n[nH]c3n2)cc1"
  cat: "n"
- smiles entry: "COC(=O)Nc1nc2ccc(Sc3ccc(NC(=O)Nc4cc(C(F)(F)F)ccc4F)cc3)cc2[nH]1"
  cat: "n"
- smiles entry: "O=C1Nc2ccccc2/C1=C/Nc1ccc(-n2cncn2)cc1"
  cat: "y"
- smiles entry: "N#Cc1ccc(Oc2nccc(-c3c(-c4ccc(F)cc4)ncn3C3CCNCC3)n2)cc1"
  cat: "y"
- smiles entry: "CS(=O)(=O)CCNCc1ccc(-c2ccc3ncnc(Nc4ccc(OCc5ccccc5)c(Br)c4)c3c2)o1"
  cat: "n"

----------
Molecular target: Serine/threonine-protein kinase Nek2 (Homo sapiens) (UniProt P51955);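 note: reported values are mean percent inhibition of NEK2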
Sequence (whole entry): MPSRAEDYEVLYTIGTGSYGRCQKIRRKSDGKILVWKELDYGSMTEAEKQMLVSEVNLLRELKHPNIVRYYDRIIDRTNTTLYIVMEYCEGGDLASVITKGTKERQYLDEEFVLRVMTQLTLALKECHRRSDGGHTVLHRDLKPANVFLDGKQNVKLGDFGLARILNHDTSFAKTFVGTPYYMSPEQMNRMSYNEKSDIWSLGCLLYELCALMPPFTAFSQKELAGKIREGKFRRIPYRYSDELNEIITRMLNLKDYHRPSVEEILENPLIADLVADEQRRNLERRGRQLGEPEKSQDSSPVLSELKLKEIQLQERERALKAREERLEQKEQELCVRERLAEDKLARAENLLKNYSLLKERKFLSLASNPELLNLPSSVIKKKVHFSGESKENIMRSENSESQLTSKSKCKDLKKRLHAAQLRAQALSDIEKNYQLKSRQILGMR
Conditions: at 1 µM

- compound: "CNC(=O)c1cncc(/C=C/c2c(C)cccc2C)c1"
  inhibition (%): -0.77
- compound: "CN1CCN(CCCNc2nc3ccc(Oc4ccc(NC(=O)Nc5cc(C(F)(F)F)ccc5F)cc4)cc3[nH]2)CC1"
  inhibition (%): 0.01
- compound: "FC(F)(F)c1cccc(Nc2nccc(-c3cnn4nc(-c5ccccc5)ccc34)n2)c1"
  inhibition (%): 4.5
- compound: "Nc1nccc(-c2c(-c3ccc(F)cc3)ncn2C2CCC(O)CC2)n1 (stereo not given)"
  inhibition (%): -3.67
- compound: "COc1ccc2ncn(-c3cc(O[C@H](C)c4ccccc4Cl)c(C(N)=O)s3)c2c1"
  inhibition (%): 10.3
- compound: "Fc1ccc(-c2c(-c3ccncc3)nc3n2CCS3)cc1"
  inhibition (%): 2.6
- compound: "COc1ccc2cc(-c3c(-c4ccncc4)nc(-c4ccc([S+](C)[O-])cc4C)n3C)ccc2c1 (stereo not given)"
  inhibition (%): -0.11
- compound: "CS(=O)(=O)CCNCc1ccc(-c2ccc3ncnc(Nc4ccc(OCc5ccccc5)c(Br)c4)c3c2)o1"
  inhibition (%): 3.81
- compound: "O=C1Nc2ccccc2/C1=C/Nc1ccc(-n2cncn2)cc1"
  inhibition (%): 4.16
- compound: "NC(=O)c1cc(-c2ccncc2)cc(-c2ccccc2)c1N"
  inhibition (%): 6.13

----------
compounds and their reported inhibition
system: Mast/stem cell growth factor receptor Kit (Homo sapiens), P10721 [V560G]; details: at 0.1 µM
Sequence (P10721 whole entry V560G): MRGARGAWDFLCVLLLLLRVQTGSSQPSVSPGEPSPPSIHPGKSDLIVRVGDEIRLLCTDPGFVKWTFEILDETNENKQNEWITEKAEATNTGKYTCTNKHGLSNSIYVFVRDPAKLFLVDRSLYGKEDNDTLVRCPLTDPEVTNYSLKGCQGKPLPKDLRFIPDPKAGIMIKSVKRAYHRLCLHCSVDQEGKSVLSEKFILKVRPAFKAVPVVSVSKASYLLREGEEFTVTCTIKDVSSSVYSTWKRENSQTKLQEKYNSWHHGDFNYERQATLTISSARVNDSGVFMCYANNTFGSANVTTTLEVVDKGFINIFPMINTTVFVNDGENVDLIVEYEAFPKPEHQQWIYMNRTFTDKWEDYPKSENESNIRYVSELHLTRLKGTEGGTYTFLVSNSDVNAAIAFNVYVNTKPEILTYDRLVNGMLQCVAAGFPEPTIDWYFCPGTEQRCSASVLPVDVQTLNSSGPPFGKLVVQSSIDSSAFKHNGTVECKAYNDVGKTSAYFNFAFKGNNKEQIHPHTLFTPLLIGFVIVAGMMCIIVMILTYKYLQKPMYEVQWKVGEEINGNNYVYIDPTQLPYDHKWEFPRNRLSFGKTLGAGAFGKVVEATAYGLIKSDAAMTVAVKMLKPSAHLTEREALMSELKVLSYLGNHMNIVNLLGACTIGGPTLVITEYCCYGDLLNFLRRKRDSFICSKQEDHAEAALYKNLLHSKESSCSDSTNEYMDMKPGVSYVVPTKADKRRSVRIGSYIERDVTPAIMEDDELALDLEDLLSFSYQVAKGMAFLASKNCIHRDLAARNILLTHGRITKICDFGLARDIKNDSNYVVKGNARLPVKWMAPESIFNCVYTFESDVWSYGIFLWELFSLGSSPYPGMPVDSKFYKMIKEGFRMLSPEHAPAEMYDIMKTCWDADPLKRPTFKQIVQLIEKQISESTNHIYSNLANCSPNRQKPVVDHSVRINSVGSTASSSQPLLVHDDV

- smiles entry: "O=C(NCC1CC1)c1ccc(-c2cccc(C(=O)NC3CC3)c2)cc1"
  study system: "Mast/stem cell growth factor receptor Kit (Homo sapiens), P10721 [V560G]"
  inhibition: "3.49%"
- smiles entry: "CN(C)CCCNc1nccc(-c2c(-c3ccc(F)cc3)nn3cc(C(F)(F)F)ccc23)n1"
  study system: "Mast/stem cell growth factor receptor Kit (Homo sapiens), P10721 [V560G]"
  inhibition: "6.47%"
- smiles entry: "COc1ccc(C2=C(N3CCc4ccccc43)C(=O)NC2=O)cc1"
  study system: "Mast/stem cell growth factor receptor Kit (Homo sapiens), P10721 [V560G]"
  inhibition: "3.19%"
- smiles entry: "NC(=O)Cc1ccccc1Oc1nccc(-c2c(-c3ccc(F)cc3)ncn2C2CCNCC2)n1"
  study system: "Mast/stem cell growth factor receptor Kit (Homo sapiens), P10721 [V560G]"
  inhibition: "0.54%"
- smiles entry: "O=C1Nc2ccccc2/C1=C/Nc1ccc(-n2cncn2)cc1"
  study system: "Mast/stem cell growth factor receptor Kit (Homo sapiens), P10721 [V560G]"
  inhibition: "-2.32%"
- smiles entry: "Fc1ccc(-c2ncn(C3CCNCC3)c2-c2ccnc(Oc3ccc(F)c(F)c3)n2)cc1"
  study system: "Mast/stem cell growth factor receptor Kit (Homo sapiens), P10721 [V560G]"
  inhibition: "-1.36%"
- smiles entry: "Cc1ccc(C(=O)NC(C)C)cc1-c1ccc(C(=O)NCC2CC2)cc1"
  study system: "Mast/stem cell growth factor receptor Kit (Homo sapiens), P10721 [V560G]"
  inhibition: "1.17%"
- smiles entry: "NC(=O)c1ccc(Oc2nccc(-c3c(-c4ccc(F)cc4)ncn3C3CCNCC3)n2)cc1"
  study system: "Mast/stem cell growth factor receptor Kit (Homo sapiens), P10721 [V560G]"
  inhibition: "-1.86%"
- smiles entry: "NC(=O)c1cc(-c2ccncc2)cc(-c2ccccc2)c1N"
  study system: "Mast/stem cell growth factor receptor Kit (Homo sapiens), P10721 [V560G]"
  inhibition: "2.91%"
- smiles entry: "C#Cc1cccc(Nc2ncnc3ccc(OCCCCNCCS(C)(=O)=O)cc23)c1"
  study system: "Mast/stem cell growth factor receptor Kit (Homo sapiens), P10721 [V560G]"
  inhibition: "-0.82%"

----------
biological target: Dual specificity protein kinase CLK3 (Homo sapiens) (UniProt P49761); settings: at 1 µM;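 note: each value is the mean inhibition of CLK3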
Sequence (P49761 whole entry, looked up): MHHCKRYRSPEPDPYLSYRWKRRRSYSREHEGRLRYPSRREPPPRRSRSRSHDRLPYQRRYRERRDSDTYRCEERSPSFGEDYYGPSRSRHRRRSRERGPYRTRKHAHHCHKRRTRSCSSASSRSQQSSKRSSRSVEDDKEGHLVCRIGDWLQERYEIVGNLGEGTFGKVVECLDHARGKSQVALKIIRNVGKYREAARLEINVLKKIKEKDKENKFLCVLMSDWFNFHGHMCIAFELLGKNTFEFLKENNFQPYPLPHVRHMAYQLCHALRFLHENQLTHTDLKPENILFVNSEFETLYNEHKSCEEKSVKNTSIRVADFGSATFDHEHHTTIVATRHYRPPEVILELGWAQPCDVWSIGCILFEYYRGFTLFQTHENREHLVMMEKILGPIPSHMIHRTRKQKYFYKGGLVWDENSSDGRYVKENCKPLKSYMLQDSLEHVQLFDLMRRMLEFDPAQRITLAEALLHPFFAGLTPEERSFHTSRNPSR

- smiles entry: "CN1CCN(CCCNc2nc3ccc(Oc4ccc(NC(=O)Nc5cc(C(F)(F)F)ccc5F)cc4)cc3[nH]2)CC1"
  study system: "Dual specificity protein kinase CLK3 (Homo sapiens) (UniProt P49761)"
  inhibition [%]: -3.62
- smiles entry: "COc1ccc2ncn(-c3cc(O[C@H](C)c4ccccc4Cl)c(C(N)=O)s3)c2c1"
  study system: "Dual specificity protein kinase CLK3 (Homo sapiens) (UniProt P49761)"
  inhibition [%]: -2.47
- smiles entry: "O=C(Nc1n[nH]c2cc(-c3ccccc3)ccc12)C1CC1"
  study system: "Dual specificity protein kinase CLK3 (Homo sapiens) (UniProt P49761)"
  inhibition [%]: 2.33
- smiles entry: "C[C@@H](Oc1cc(-n2cnc3ccc(OCC4CCN(C)CC4)cc32)sc1C(N)=O)c1ccccc1Cl"
  study system: "Dual specificity protein kinase CLK3 (Homo sapiens) (UniProt P49761)"
  inhibition [%]: 2.9
- smiles entry: "C#Cc1cccc(Nc2ncnc3ccc(OCCCCNCCS(C)(=O)=O)cc23)c1"
  study system: "Dual specificity protein kinase CLK3 (Homo sapiens) (UniProt P49761)"
  inhibition [%]: -1.87
- smiles entry: "COc1cc2ncn(-c3cc(OCc4cccs4)c(C(N)=O)s3)c2cc1OC"
  study system: "Dual specificity protein kinase CLK3 (Homo sapiens) (UniProt P49761)"
  inhibition [%]: 0.59
- smiles entry: "COC(=O)Nc1nc2ccc(Sc3ccc(NC(=O)Nc4cc(C(F)(F)F)ccc4F)cc3)cc2[nH]1"
  study system: "Dual specificity protein kinase CLK3 (Homo sapiens) (UniProt P49761)"
  inhibition [%]: 2.87
- smiles entry: "COc1ccc(-c2ccc3c(NC(=O)C4CC4)n[nH]c3n2)cc1"
  study system: "Dual specificity protein kinase CLK3 (Homo sapiens) (UniProt P49761)"
  inhibition [%]: 2.15
- smiles entry: "O=C(NCC1CC1)c1ccc(-c2cccc(C(=O)NC3CC3)c2)cc1"
  study system: "Dual specificity protein kinase CLK3 (Homo sapiens) (UniProt P49761)"
  inhibition [%]: 2.44
- smiles entry: "NC(=O)c1cc(-c2ccc(F)cc2)cc(-c2ccncc2)c1N"
  study system: "Dual specificity protein kinase CLK3 (Homo sapiens) (UniProt P49761)"
  inhibition [%]: 0.95
- smiles entry: "NC(=O)c1ccc(Oc2nccc(-c3c(-c4ccc(F)cc4)ncn3C3CCNCC3)n2)cc1"
  study system: "Dual specificity protein kinase CLK3 (Homo sapiens) (UniProt P49761)"
  inhibition [%]: 1.67
- smiles entry: "COc1cc(N2CCN(C(C)C)CC2)ccc1Nc1nc(Nc2ccc(F)cc2C(=O)NC[C@@H](O)CO)c2cc[nH]c2n1"
  study system: "Dual specificity protein kinase CLK3 (Homo sapiens) (UniProt P49761)"
  inhibition [%]: 4.1
- smiles entry: "O=C(Nc1n[nH]c2nc(-c3ccco3)ccc12)C1CC1"
  study system: "Dual specificity protein kinase CLK3 (Homo sapiens) (UniProt P49761)"
  inhibition [%]: 0.48
- smiles entry: "COc1ccc(C2=C(N3CCc4ccccc43)C(=O)NC2=O)cc1"
  study system: "Dual specificity protein kinase CLK3 (Homo sapiens) (UniProt P49761)"
  inhibition [%]: 4.16
- smiles entry: "O=C1NC(=O)C(c2cccc(Cl)c2)=C1Nc1ccc(Cl)c(C(=O)O)c1"
  study system: "Dual specificity protein kinase CLK3 (Homo sapiens) (UniProt P49761)"
  inhibition [%]: 2.4
- smiles entry: "CN(C)CCCNc1nccc(-c2c(-c3ccc(F)cc3)nn3cc(C(F)(F)F)ccc23)n1"
  study system: "Dual specificity protein kinase CLK3 (Homo sapiens) (UniProt P49761)"
  inhibition [%]: -2.17
- smiles entry: "COc1ccc2cc(-c3c(-c4ccncc4)nc(-c4ccc(S(C)(=O)=O)cc4C)n3C)ccc2c1"
  study system: "Dual specificity protein kinase CLK3 (Homo sapiens) (UniProt P49761)"
  inhibition [%]: 2.06
- smiles entry: "NCc1ccc(-n2c(-c3nonc3N)nc3cnccc32)cc1"
  study system: "Dual specificity protein kinase CLK3 (Homo sapiens) (UniProt P49761)"
  inhibition [%]: 3.13
